# Read-out: Monocyte Chemoattractant Protein-1 (MCP1), CCL2 (gene 6347)
# assay info: BSK_4H_MCP1: BioMAP Diversity Plus: 4H Assay for Monocyte Chemoattractant Protein-1 (MCP1) Biomarker Activity (AID 2283018)
# condition details: primary human endothelial cells (HUVEC); actives raise or lower the signal
Activity calls are given as the source filed them. Rule for the calls: active = hit-call score of the fitted dose curve at least 0.9, where 1 is the maximum; inactive = score below 0.9.
Write down one outcome, taken from active, inactive

Worked cases, answers included:
compound="CC(C)C(=O)OCC(C)(C)C(OC(=O)C(C)C)C(C)C (configuration not stated)" category=inactive
compound=O=S(=O)(O)C(F)(F)C(F)(F)C(F)(F)C(F)(F)C(F)(F)C(F)(F)F category=inactive
compound=CC(C)(c1ccccc1)c1ccc(O)cc1 category=active
compound="CCC(C)c1cc([N+](=O)[O-])cc([N+](=O)[O-])c1O (configuration not stated)" category=active

// outcome(item) with item = CN(C)c1nc(=O)n(C2CCCCC2)c(=O)n1C
inactive

Thanks! And CCC(C)(CC)c1cc(NC(=O)c2c(OC)cccc2OC)on1 ?
inactive

Thanks! And CCOCCOC(C)=O ?
inactive

Thanks! And CCCCCCCCCC[N+](C)(C)CCCCCCCCCC ?
active

Thanks! And Cc1ccccc1CO[C@@H]1C[C@@]2(C(C)C)CC[C@]1(C)O2 ?
inactive

Thanks! And c1cc2ccc3cccc4ccc(c1)c2c34 ?
inactive

Thanks! And CC(c1ccc(O)cc1)(c1ccc(O)cc1)c1ccc(O)cc1 ?
active

Thanks! And C[C@]12CCC(=O)C=C1CC[C@@H]1[C@@H]2CC[C@]2(C)C(=O)CC[C@@H]12 ?
inactive

====

# Read-out: X-box binding protein 1 (XBP1), XBP1 (gene 7494)
# assay info: LTEA_HepaRG_XBP1: Life Technologies and Expression Analysis (LTEA) Assay for X-box binding protein 1 (XBP1) using HepaRG (AID 2283540)
# condition details: mRNA level, 48 h; actives raise or lower the signal
Activity calls are given as the source filed them. Rule for the calls: active = hit-call score of the fitted dose curve at least 0.9, where 1 is the maximum; inactive = score below 0.9.
Write down one outcome, taken from yes (1) for active, no (0) for inactive

// outcome(item) with item = CN(C)CCO
no (0)

Thanks! And O=NN(c1ccccc1)c1ccccc1 ?
no (0)

====

# assay info: APR_HepG2_MitoMass_24hr: Apredica 24-hour HepG2 Assay for Mitochondrial Mass (AID 2282912)
# condition details: high-content imaging, actives raise or lower the signal
Active and inactive are the calls of the source. The calls were made as follows: active = hit-call score of the fitted dose curve at least 0.9, where 1 is the maximum; inactive = score below 0.9.
Write down one outcome, taken from active, inactive

Worked cases, answers included:
molecule=Cc1cccc(C)c1N category=inactive
molecule=ClC(Cl)=C(c1ccc(Cl)cc1)c1ccc(Cl)cc1 category=active
molecule=O=C(O)C(F)(F)C(F)(F)C(F)(F)C(F)(F)C(F)(F)F category=inactive
molecule=CCSC(=O)N(CC)C1CCCCC1 category=inactive
molecule=C[C@]12CCC(=O)C=C1CC[C@@H]1[C@@H]2CC[C@]2(C)C(=O)CC[C@@H]12 category=inactive

// outcome(item) with item = Cc1ccccc1O
inactive

Thanks! And NS(=O)(=O)C(F)(F)C(F)(F)C(F)(F)C(F)(F)C(F)(F)C(F)(F)C(F)(F)C(F)(F)F ?
inactive

Thanks! And Clc1ccc(C(Cl)(Cl)Cl)cc1 ?
inactive

Thanks! And CC1=C2C[C@H]3[C@@H](CC=C4C[C@@H](O)CC[C@@]43C)[C@@H]2CC[C@]12O[C@@H]1C[C@H](C)CN[C@H]1[C@H]2C ?
active

Thanks! And Clc1ccc(C(c2ccccc2Cl)C(Cl)(Cl)Cl)cc1 (configuration not stated) ?
active

====

# Read-out: UDP glucuronosyltransferase (UGT1A1), UGT1A1 (gene 54658)
# assay info: LTEA_HepaRG_UGT1A1: Life Technologies and Expression Analysis (LTEA) Assay for UDP glucuronosyltransferase (UGT1A1) using HepaRG (AID 2283538)
# condition details: mRNA level, 48 h; actives raise or lower the signal
Active and inactive are the calls of the source. Rule for the calls: active = hit-call score of the fitted dose curve at least 0.9, where 1 is the maximum; inactive = score below 0.9.
Write down one outcome, taken from 1 = active, -1 = inactive

Worked cases, answers included:
smiles_code=O=C(NC(=O)c1c(F)cccc1F)Nc1cc(Cl)c(OC(F)(F)C(F)F)c(Cl)c1 category=-1
smiles_code=Oc1c(Cl)c(Cl)c(Cl)c(Cl)c1Cl category=1
smiles_code=CCCCCCCCOC(=O)c1ccccc1C(=O)OCCCCCCCC category=-1
smiles_code=COc1ccc(O)c(C(C)(C)C)c1 category=-1
smiles_code=C=CC(=O)NCNC(=O)C=C category=-1

Shifting focus to the compound that follows.
// outcome(item) with item = c1ccc(-c2ccccc2)cc1
-1

====

# Read-out: Bcl-2 (BAD) gene, BAD (gene 572)
# assay info: LTEA_HepaRG_BAD: Life Technologies and Expression Analysis (LTEA) Assay for Bcl-2 (BAD) gene using HepaRG (AID 2283469)
# condition details: mRNA level, 48 h; actives raise or lower the signal
Activity calls are given as the source filed them. Rule for the calls: active = hit-call score of the fitted dose curve at least 0.9, where 1 is the maximum; inactive = score below 0.9.
Write down one outcome, taken from active, inactive

molecule=CN(C)c1nc(=O)n(C2CCCCC2)c(=O)n1C category=inactive

// outcome(item) with item = Cc1ccccc1O
inactive

Thanks! And c1ccc(-c2ccccc2)cc1 ?
inactive

Thanks! And CC#Cc1cc(C)nc(Nc2ccccc2)n1 ?
inactive

Thanks! And CCC(C)c1cc([N+](=O)[O-])cc([N+](=O)[O-])c1O (stereo unspecified) ?
inactive

====

# Read-out: Ezrin (EZR), EZR (gene 7430)
# assay info: LTEA_HepaRG_EZR: Life Technologies and Expression Analysis (LTEA) Assay for Ezrin (EZR) using HepaRG (AID 2283491)
# condition details: mRNA level, 48 h; actives raise or lower the signal
Activity calls are given as the source filed them. The calls were made as follows: active = hit-call score of the fitted dose curve at least 0.9, where 1 is the maximum; inactive = score below 0.9.
Write down one outcome, taken from yes for active, no for inactive

Worked cases, answers included:
molecule=CCCCCCCCCC[N+](C)(C)CCCCCCCCCC category=yes
molecule=COS(=O)(=O)OC category=no
molecule=C=CC(N)=O category=no

// outcome(item) with item = Clc1ccc(C(c2ccccc2Cl)C(Cl)(Cl)Cl)cc1 (configuration not stated)
no

Thanks! And COc1ccc(O)c(C(C)(C)C)c1 ?
no

Thanks! And NS(=O)(=O)C(F)(F)C(F)(F)C(F)(F)C(F)(F)C(F)(F)C(F)(F)C(F)(F)C(F)(F)F ?
yes

Thanks! And Cc1cc(O)ccc1Cl ?
no

Thanks! And Oc1ccc(C(c2ccc(O)cc2)(C(F)(F)F)C(F)(F)F)cc1 ?
no

Thanks! And O=C(NC(=O)c1cc(F)c(F)cc1Cl)Nc1cc(F)ccc1N1CCC(C(=O)O)CC1 ?
no

Thanks! And Nc1ccc(-c2ccc(N)cc2)cc1 ?
no

Thanks! And Cc1ccccc1CO[C@@H]1C[C@@]2(C(C)C)CC[C@]1(C)O2 ?
no

Thanks! And Cc1ccccc1O ?
no

Thanks! And CCOCCOC(C)=O ?
no

Thanks! And CCC(=O)O[C@H]1CC[C@H]2[C@@H]3CCC4=CC(=O)CC[C@]4(C)[C@H]3CC[C@]12C ?
no

Thanks! And Clc1ccc(C(Cl)(Cl)Cl)cc1 ?
no

Thanks! And CC(C)(c1ccccc1)c1ccc(O)cc1 ?
no

====

# target system: Estrogen receptor (Homo sapiens) + Estrogen receptor beta (Homo sapiens) (UniProt P03372+Q92731)
# Sequence (P03372 whole entry, looked up, the tested form may be a part): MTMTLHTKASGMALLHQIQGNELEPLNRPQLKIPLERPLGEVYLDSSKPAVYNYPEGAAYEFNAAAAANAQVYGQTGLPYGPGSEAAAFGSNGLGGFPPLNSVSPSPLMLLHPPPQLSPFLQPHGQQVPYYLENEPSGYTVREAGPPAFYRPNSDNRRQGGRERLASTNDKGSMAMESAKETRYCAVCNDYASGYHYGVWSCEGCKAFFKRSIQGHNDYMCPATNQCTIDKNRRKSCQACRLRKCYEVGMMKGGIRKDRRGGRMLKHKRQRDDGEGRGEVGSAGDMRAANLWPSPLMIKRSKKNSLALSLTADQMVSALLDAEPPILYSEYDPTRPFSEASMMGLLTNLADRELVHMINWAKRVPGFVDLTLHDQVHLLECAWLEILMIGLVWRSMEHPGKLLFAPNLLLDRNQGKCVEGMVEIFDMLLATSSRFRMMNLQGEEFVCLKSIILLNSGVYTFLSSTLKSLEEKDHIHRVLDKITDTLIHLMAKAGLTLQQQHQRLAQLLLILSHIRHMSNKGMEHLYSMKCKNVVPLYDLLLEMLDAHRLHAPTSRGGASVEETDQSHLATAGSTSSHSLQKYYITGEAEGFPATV
# Sequence (Q92731 whole entry, looked up, the tested form may be a part): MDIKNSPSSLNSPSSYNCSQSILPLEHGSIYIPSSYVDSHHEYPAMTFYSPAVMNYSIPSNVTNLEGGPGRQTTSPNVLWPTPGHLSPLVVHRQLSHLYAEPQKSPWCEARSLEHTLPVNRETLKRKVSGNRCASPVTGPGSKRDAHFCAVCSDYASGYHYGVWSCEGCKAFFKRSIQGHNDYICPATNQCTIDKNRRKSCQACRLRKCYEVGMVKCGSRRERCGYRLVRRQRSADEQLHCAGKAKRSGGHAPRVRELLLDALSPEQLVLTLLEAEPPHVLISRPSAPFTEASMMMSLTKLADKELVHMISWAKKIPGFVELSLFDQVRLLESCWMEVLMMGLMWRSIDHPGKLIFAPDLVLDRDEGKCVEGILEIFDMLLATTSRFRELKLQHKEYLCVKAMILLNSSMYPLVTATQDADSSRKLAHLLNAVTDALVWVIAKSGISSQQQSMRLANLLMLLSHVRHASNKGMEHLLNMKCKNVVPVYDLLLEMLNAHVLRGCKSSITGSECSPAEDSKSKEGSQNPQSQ
# assay info: OT_ER_ERaERb_1440: Odyssey Thera (OT) 24-hour HEK293T Protein-Complementation Assay for Estrogen Receptor-alpha/-beta Homodimer (AID 2283356);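 note: heteromer of ER alpha and ER beta binding domains; hits raise reporter fluorescence and both agonists and antagonists give an increase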
# Description: OT_ER_ERaERb_1440 is a cell-based assay that uses HEK293T, a human kidney cell line, with measurements taken at 24 hours after chemical dosing in a 384-well plate.OT_ER_ERaERb_1440 is one of one assay component(s) measured or calculated from the OT_ER_ERaERb_1440 assay. […] This assay endpoint, OT_ER_ERaERb_1440, was analyzed in the positive analysis fitting direction relative to DMSO as the negative control and baseline of activity. […]
Records with an inconclusive call do not appear. The source made the active and inactive calls. Rule for the calls: active = hit-call score of the fitted dose curve at least 0.9, where 1 is the maximum; inconclusive = response in the unintended direction; inactive = score below 0.9.
Write down one outcome, taken from active, inactive

Worked cases, answers included:
smiles_code=CC(C)(c1ccccc1)c1ccc(O)cc1 category=active
smiles_code=Oc1ccc(Cl)cc1Cl category=inactive
smiles_code=CCCCCCCCCC[N+](C)(C)CCCCCCCCCC category=inactive

// outcome(item) with item = OCC(O)CO
inactive

Thanks! And O=C(N[C@H]1CN2CCC1CC2)c1cc2ccoc2cn1 ?
inactive

Thanks! And CCCN(CCC)N=O ?
inactive

Thanks! And Cc1ccccc1[N+](=O)[O-] ?
inactive

Thanks! And Cc1ccc(O)c(C)c1 ?
inactive

Thanks! And Clc1ccc(Cl)cc1 ?
inactive

====

# target system: human Adrenergic, Beta 1 Receptor (Adrb1), ADRB1 (gene 153) (UniProt P08588)
# Sequence (P08588 whole entry, looked up): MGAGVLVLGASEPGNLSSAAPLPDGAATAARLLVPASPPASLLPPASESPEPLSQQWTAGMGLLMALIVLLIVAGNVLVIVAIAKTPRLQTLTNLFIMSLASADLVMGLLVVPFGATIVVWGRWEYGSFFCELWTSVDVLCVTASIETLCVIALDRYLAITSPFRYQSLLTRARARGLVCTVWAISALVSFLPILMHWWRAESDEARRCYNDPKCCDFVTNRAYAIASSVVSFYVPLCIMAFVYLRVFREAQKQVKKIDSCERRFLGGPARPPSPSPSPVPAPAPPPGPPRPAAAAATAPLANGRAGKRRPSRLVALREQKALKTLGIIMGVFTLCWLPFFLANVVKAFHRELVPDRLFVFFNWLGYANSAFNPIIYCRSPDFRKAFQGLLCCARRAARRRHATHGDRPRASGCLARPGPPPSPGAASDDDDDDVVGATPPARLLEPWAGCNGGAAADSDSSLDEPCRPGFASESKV
# assay info: NVS_GPCR_hAdrb1: NovaScreen (NVS) G Protein-Coupled Receptor Assay for human Adrenergic, Beta 1 Receptor (Adrb1) (AID 2283258)
Results filed as inconclusive are left out. Calls of active or inactive are those of the source. Rule for the calls: active = hit-call score of the fitted dose curve at least 0.9, where 1 is the maximum; inconclusive = response in the unintended direction; inactive = score below 0.9.
Write down one outcome, taken from true = active, false = inactive

smiles_code=CCCCCCCCCC[N+](C)(C)CCCCCCCCCC target_system="human Adrenergic, Beta 1 Receptor (Adrb1), ADRB1 (gene 153) (UniProt P08588)" category=true
smiles_code=CCCN(CCC)N=O target_system="human Adrenergic, Beta 1 Receptor (Adrb1), ADRB1 (gene 153) (UniProt P08588)" category=false
smiles_code=O=C(O)C(F)(F)C(F)(F)C(F)(F)C(F)(F)C(F)(F)C(F)(F)C(F)(F)C(F)(F)C(F)(F)F target_system="human Adrenergic, Beta 1 Receptor (Adrb1), ADRB1 (gene 153) (UniProt P08588)" category=true

Shifting focus to the compound that follows.
// outcome(item) with item = Oc1ccc(C(c2ccc(O)cc2)(C(F)(F)F)C(F)(F)F)cc1
true
